Biological target: T1, AXL on MDA-MB-231 cells (UniProt P30530 26-894, limits assumed)
T1 sequence (looked up): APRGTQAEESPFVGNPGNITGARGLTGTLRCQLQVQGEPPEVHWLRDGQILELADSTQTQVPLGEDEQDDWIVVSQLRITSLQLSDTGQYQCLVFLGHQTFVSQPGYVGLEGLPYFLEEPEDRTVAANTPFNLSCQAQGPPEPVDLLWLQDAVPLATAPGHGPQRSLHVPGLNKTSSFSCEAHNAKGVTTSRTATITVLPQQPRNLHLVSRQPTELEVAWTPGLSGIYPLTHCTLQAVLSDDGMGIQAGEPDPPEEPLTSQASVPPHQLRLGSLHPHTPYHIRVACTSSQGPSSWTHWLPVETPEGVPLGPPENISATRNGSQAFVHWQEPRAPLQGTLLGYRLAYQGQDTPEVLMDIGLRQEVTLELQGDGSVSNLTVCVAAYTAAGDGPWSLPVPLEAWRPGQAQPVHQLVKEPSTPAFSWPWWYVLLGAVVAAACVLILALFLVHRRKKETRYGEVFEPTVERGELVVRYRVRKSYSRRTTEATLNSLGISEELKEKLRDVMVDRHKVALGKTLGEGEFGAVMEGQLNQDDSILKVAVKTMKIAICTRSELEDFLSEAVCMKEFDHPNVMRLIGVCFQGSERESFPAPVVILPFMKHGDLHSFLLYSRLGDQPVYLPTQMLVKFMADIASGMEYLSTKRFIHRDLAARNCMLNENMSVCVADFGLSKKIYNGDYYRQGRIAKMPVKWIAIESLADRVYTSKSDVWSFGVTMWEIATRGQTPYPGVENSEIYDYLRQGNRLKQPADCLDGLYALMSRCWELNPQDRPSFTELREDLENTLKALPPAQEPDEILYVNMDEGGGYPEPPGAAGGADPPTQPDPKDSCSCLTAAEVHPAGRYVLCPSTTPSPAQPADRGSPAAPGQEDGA
Assay: cell-based or functional assay
Quantity: GI50 (pg/ml), MDA-MB-231 cytotoxicity, MTS assay, 5 days (pg/mL)

INSERT INTO results (binder, unit_of_measure, experimental_result) VALUES
  ('Ab1-ConjE (Ab1 conjugated to the ConjE PBD payload, DAR 2.2) (other, ConjE PBD drug-linker on cysteine thiol(s) of the antibody, sites not stated; DAR 2.2) VH: EVQLVESGGDLVKPGGSLKLSCAASGFTFSSYGMSWVRQTPDKRLEWVATISSGGSYTYYPDSVKGRFTISRDNAKNTLYLQMSSLKSEDTAMYYCARHPIYYTYDDTMDYWGQGTSVTVSS VL: ENVLTQSPAIMAASPGEKVTMTCSASSSVSSGNFHWYQQKPGTSPKLWIYRTSNLASGVPARFSGSGSGTSYSLTISSMEAEDAATYYCQQWSGYPWTFGGGTKLEIK', 'pg/mL', 6.95);
